# System tested: NDM-1 (Klebsiella pneumoniae)
# Sequence (C7C422 whole entry, looked up, species assumed): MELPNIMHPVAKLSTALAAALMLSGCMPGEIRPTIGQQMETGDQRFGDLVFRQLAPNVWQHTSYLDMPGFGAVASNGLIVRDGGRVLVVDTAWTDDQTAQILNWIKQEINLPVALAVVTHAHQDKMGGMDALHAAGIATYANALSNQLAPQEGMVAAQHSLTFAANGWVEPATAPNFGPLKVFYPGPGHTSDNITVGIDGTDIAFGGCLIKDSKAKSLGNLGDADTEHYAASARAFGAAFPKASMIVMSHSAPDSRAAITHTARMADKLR
# Assay details: biochemical
# Type: biochemical
# Measurement conditions: CCF2-FA substrate, 2 hours at 25° C; read-out: NDM-1 IC50
# IC50 per entry
Answer in pM, number only, no unit symbol.

Before answering, review these 8 worked examples.
>  <Compound>
NCCS(=O)(=O)c1ccc(-c2cccc3cc(N)ncc23)c(-c2nn[nH]n2)c1S(N)(=O)=O [Example 73]

>  <System tested>
NDM-1 (Klebsiella pneumoniae)

>  <Unit name>
pM

>  <IC50>
109

$$$$
>  <Compound>
NCCS(=O)(=O)c1ccc(-c2ccccc2NC(=O)CN)c(-c2nn[nH]n2)c1S(N)(=O)=O [Example 340]

>  <System tested>
NDM-1 (Klebsiella pneumoniae)

>  <Unit name>
pM

>  <IC50>
24800

$$$$
>  <Compound>
CCOC(=O)N1CCC(S(=O)(=O)c2ccc(-c3cccc4nc(N)[nH]c34)c(-c3nn[nH]n3)c2S(N)(=O)=O)CC1 [Example 46]

>  <System tested>
NDM-1 (Klebsiella pneumoniae)

>  <Unit name>
pM

>  <IC50>
445

$$$$
>  <Compound>
Nc1nc2c(-c3ccc(S(=O)(=O)[C@H]4CCNC4)c(S(N)(=O)=O)c3-c3nn[nH]n3)cccc2s1 [Example 184]

>  <System tested>
NDM-1 (Klebsiella pneumoniae)

>  <Unit name>
pM

>  <IC50>
92.5

$$$$
>  <Compound>
Cc1ccc(-c2ccc(S(=O)(=O)[C@H]3CCNC3)c(S(N)(=O)=O)c2-c2nn[nH]n2)c2nc(N)sc12 [Example 188]

>  <System tested>
NDM-1 (Klebsiella pneumoniae)

>  <Unit name>
pM

>  <IC50>
43.5

$$$$
>  <Compound>
NCCS(=O)(=O)c1ccc(-c2cccc3cnccc23)c(-c2nnn[nH]2)c1S(N)(=O)=O.O=C(O)C(F)(F)F [Example 171]

>  <System tested>
NDM-1 (Klebsiella pneumoniae)

>  <Unit name>
pM

>  <IC50>
306

$$$$
>  <Compound>
NS(=O)(=O)c1c(S(=O)(=O)[C@@H]2CCNC2)ccc(-c2cccc3cn[nH]c23)c1-c1nn[nH]n1 [Example 185]

>  <System tested>
NDM-1 (Klebsiella pneumoniae)

>  <Unit name>
pM

>  <IC50>
657

$$$$
>  <Compound>
NS(=O)(=O)c1c(S(=O)(=O)CC2CNC2)ccc([C@H]2CC[C@@H](N)CC2)c1-c1nnn[nH]1 [Example 205]

>  <System tested>
NDM-1 (Klebsiella pneumoniae)

>  <Unit name>
pM

>  <IC50>
44600

$$$$

Qu. Answer with the recorded IC50 for the compound listed here: NCCS(=O)(=O)c1ccc(-c2ccnc3[nH]ccc23)c(-c2nnn[nH]2)c1S(N)(=O)=O.O=C(O)C(F)(F)F [Example 142, 2,2,2-trifluoroacetate]
Ans. 518

Qu. Answer with the recorded IC50 for the compound listed here: Cn1c(N)nc2c(-c3ccc(S(=O)(=O)C4CNC4)c(S(N)(=O)=O)c3-c3nn[nH]n3)cccc21 [Example 22]
Ans. 164

----------
# Tested on: P. aeruginosa expressing IMP-1, efflux+ (MB9798)
# Assay type: cell-based, Pseudomonas aeruginosa
# Measurement conditions: ratio MITC95 PA_9798/MITC95 PA_9799
Where a name gives a salt, the structure may show the parent alone.
# Efflux ratio per entry
Answer field: number only, no words.

Qu. Answer with the recorded Efflux ratio for the compound listed here: `Cn1ncc2cccc(-c3ccc(S(=O)(=O)C4CNC4)c(S(N)(=O)=O)c3-c3nnn[nH]3)c21.O=C(O)C(F)(F)F`
Ans. 4.00

Qu. Answer with the recorded Efflux ratio for the compound listed here: NC1CCC(c2ccc(S(=O)(=O)C3CCNCC3)c(S(N)(=O)=O)c2-c2nnn[nH]2)CC1 (stereo not shown)
Ans. 2.00

Qu. Answer with the recorded Efflux ratio for the compound listed here: `Nc1nc2ccc(-c3ccc(S(=O)(=O)C4CNC4)c(S(N)(=O)=O)c3-c3nn[nH]n3)cc2o1`
Ans. 2.00

Qu. Answer with the recorded Efflux ratio for the compound listed here: `Cn1c(N)nc2c(-c3ccc(S(=O)(=O)C[C@@H](O)CN)c(S(N)(=O)=O)c3-c3nn[nH]n3)cccc21`
Ans. 1.00

Qu. Answer with the recorded Efflux ratio for the compound listed here: `NC[C@H](O)CS(=O)(=O)c1ccc(-c2ccc(N)nc2)c(-c2nn[nH]n2)c1S(N)(=O)=O`
Ans. 1.50

Qu. Answer with the recorded Efflux ratio for the compound listed here: NCCS(=O)(=O)c1ccc(-c2cncc3sc(N)nc23)c(-c2nn[nH]n2)c1S(N)(=O)=O [Example 81, hydrochloride]
Ans. 1.00

Qu. Answer with the recorded Efflux ratio for the compound listed here: `N#CC1(c2ccc(-c3ccc(S(=O)(=O)CCN)c(S(N)(=O)=O)c3-c3nnn[nH]3)cn2)CNC1.O=C(O)C(F)(F)F`
Ans. 4.00

----------
# Tested on: P. aeruginosa expressing IMP-1, efflux+ (MB9798)
# Type: cell-based, Pseudomonas aeruginosa
# Measurement conditions: ratio MITC95 PA_9798/MITC95 PA_9799
# Efflux ratio per entry
Answer field: number only, no words.

Before answering, review these 2 worked examples.
>  <Mol>
Nc1nc2c(-c3ccc(S(=O)(=O)[C@H]4CN[C@H](CO)C4)c(S(N)(=O)=O)c3-c3nn[nH]n3)cccc2[nH]1

>  <Efflux ratio>
1.00

$$$$
>  <Mol>
NS(=O)(=O)c1c(S(=O)(=O)C2CCNCC2)ccc([C@H]2CC[C@@H](N)CC2)c1-c1nnn[nH]1

>  <Efflux ratio>
2.00

$$$$

Qu. Answer with the recorded Efflux ratio for the compound listed here: `NS(=O)(=O)c1c(S(=O)(=O)[C@H]2CCNC2)ccc(-c2cccc3cn[nH]c23)c1-c1nn[nH]n1`
Ans. 2.00

Qu. Answer with the recorded Efflux ratio for the compound listed here: `NCCS(=O)(=O)c1ccc(-c2cccc(NC(=O)[C@H](N)CO)c2)c(-c2nn[nH]n2)c1S(N)(=O)=O`
Ans. 8.00

----------
# System tested: UniProt P52699
# Assay details: biochemical
# Format: biochemical
# Measurement conditions: CCF2-FA substrate, 2 hours at 25° C; read-out: IMP-1 IC50
# IC50 per entry
Answer in nM, number only, no unit symbol.

Before answering, review these 8 worked examples.
>  <Molecule>
NC[C@H](O)CS(=O)(=O)c1ccc(-c2cccc3[nH]cnc23)c(-c2nn[nH]n2)c1S(N)(=O)=O [Example 353]

>  <IC50 (nM)>
0.392

$$$$
>  <Molecule>
Nc1nc2c(-c3ccc(S(=O)(=O)[C@@H]4CCNC4)c(S(N)(=O)=O)c3-c3nn[nH]n3)cccc2o1 [Example 189]

>  <IC50 (nM)>
0.332

$$$$
>  <Molecule>
NC[C@@H](O)CS(=O)(=O)c1ccc(-c2cccc3sc(N)nc23)c(-c2nn[nH]n2)c1S(N)(=O)=O [Example 352]

>  <IC50 (nM)>
0.145

$$$$
>  <Molecule>
NS(=O)(=O)c1c(S(=O)(=O)C2CNC2)ccc(-c2cccc3[nH]c(C(=O)NCC(=O)O)nc23)c1-c1nn[nH]n1 [Example 257]

>  <IC50 (nM)>
1.2

$$$$
>  <Molecule>
NS(=O)(=O)c1c(S(=O)(=O)C2CNC2)ccc(-c2cccc3[nH]ncc23)c1-c1nnn[nH]1.O=C(O)C(F)(F)F [Example 100, 2,2,2-trifluoroacetate]

>  <IC50 (nM)>
1.61

$$$$
>  <Molecule>
NCCS(=O)(=O)c1ccc(-c2cncc(CO)c2)c(-c2nnn[nH]2)c1S(N)(=O)=O.O=C(O)C(F)(F)F [Example 143, 2,2,2-trifluoroacetate]

>  <IC50 (nM)>
8.83

$$$$
>  <Molecule>
Nc1nc2c(-c3ccc(S(=O)(=O)C4CNC4)c(S(N)(=O)=O)c3-c3nn[nH]n3)ccc(C(=O)O)c2s1 [Example 38]

>  <IC50 (nM)>
0.126

$$$$
>  <Molecule>
NS(=O)(=O)c1c(S(=O)(=O)C2CNC2)ccc(-c2cccc3[nH]cnc23)c1-c1nn[nH]n1 [Example 332]

>  <IC50 (nM)>
0.557

$$$$

Qu. Answer with the recorded IC50 for the molecule listed here: C[C@@H](N)CS(=O)(=O)c1ccc(-c2cccc3[nH]c(C(=O)O)nc23)c(-c2nn[nH]n2)c1S(N)(=O)=O [Example 348]
Ans. 0.847

Qu. Answer with the recorded IC50 for the molecule listed here: NC[C@@H](O)CS(=O)(=O)c1ccc(-c2cccc3[nH]c(N)nc23)c(-c2nn[nH]n2)c1S(N)(=O)=O [Example 312]
Ans. 0.43

----------
# pIC50 per entry
# System tested: IMP-1 (Serratia marcescens)
# Sequence (P52699 whole entry, looked up, species assumed): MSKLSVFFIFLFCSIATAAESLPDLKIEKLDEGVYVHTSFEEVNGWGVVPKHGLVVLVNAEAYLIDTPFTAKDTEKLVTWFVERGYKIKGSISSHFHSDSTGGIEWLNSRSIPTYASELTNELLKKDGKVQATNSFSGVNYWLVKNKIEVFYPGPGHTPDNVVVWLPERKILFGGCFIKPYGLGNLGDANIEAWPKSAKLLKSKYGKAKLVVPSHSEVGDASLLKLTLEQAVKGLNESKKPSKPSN
# Assay details: biochemical
# Format: biochemical
# Measurement conditions: CCF2-FA substrate, 2 hours at 25° C; read-out: IMP-1 IC50
# pIC50: negative log10 of molar concentration; output just the value

Before answering, review these 5 worked examples.
>  <Compound>
N[C@H](CO)CS(=O)(=O)c1ccc(-c2cccc3[nH]cnc23)c(-c2nn[nH]n2)c1S(N)(=O)=O [Example 356]

>  <System tested>
IMP-1 (Serratia marcescens)

>  <pIC50>
9.30

$$$$
>  <Compound>
NCCS(=O)(=O)c1ccc(-c2cccc3ncccc23)c(-c2nn[nH]n2)c1S(N)(=O)=O [Example 324]

>  <System tested>
IMP-1 (Serratia marcescens)

>  <pIC50>
9.26

$$$$
>  <Compound>
Cc1ccc(-c2ccc(S(=O)(=O)[C@@H]3CCNC3)c(S(N)(=O)=O)c2-c2nn[nH]n2)c2nc(N)sc12 [Example 187]

>  <System tested>
IMP-1 (Serratia marcescens)

>  <pIC50>
10.12

$$$$
>  <Compound>
COC(=O)c1cccc(-c2ccc(S(=O)(=O)CCN)c(S(N)(=O)=O)c2-c2nn[nH]n2)c1N [Example 197]

>  <System tested>
IMP-1 (Serratia marcescens)

>  <pIC50>
9.26

$$$$
>  <Compound>
NS(=O)(=O)c1c(S(=O)(=O)C2CNC2)ccc(-c2ccc(C3CCNCC3)cc2)c1-c1nn[nH]n1 [Example 6]

>  <System tested>
IMP-1 (Serratia marcescens)

>  <pIC50>
9.67

$$$$

Qu. Answer with the recorded pIC50 for the compound listed here: NC[C@@H](N)CS(=O)(=O)c1ccc(-c2cccc3[nH]c(N)nc23)c(-c2nn[nH]n2)c1S(N)(=O)=O [Example 360]
Ans. 9.26

Qu. Answer with the recorded pIC50 for the compound listed here: Nc1nc2c(-c3ccc(S(=O)(=O)c4ccccc4)c(S(N)(=O)=O)c3-c3nnn[nH]3)cccc2s1 [Example 232]
Ans. 9.23

Qu. Answer with the recorded pIC50 for the compound listed here: NC[C@H](N)CS(=O)(=O)c1ccc(-c2ccc(N)nc2)c(-c2nn[nH]n2)c1S(N)(=O)=O [Example 372]
Ans. 8.85

Qu. Answer with the recorded pIC50 for the compound listed here: NCCS(=O)(=O)c1ccc(-c2cccc3nc(N)sc23)c(-c2nn[nH]n2)c1S(N)(=O)=O [Example 78]
Ans. 9.36

Qu. Answer with the recorded pIC50 for the compound listed here: CC(=O)Nc1nc2c(-c3ccc(S(=O)(=O)CCN)c(S(N)(=O)=O)c3-c3nn[nH]n3)cccc2s1 [Example 82]
Ans. 9.71

Qu. Answer with the recorded pIC50 for the compound listed here: COC(=O)c1cccc(-c2ccc(S(=O)(=O)CCN)c(S(N)(=O)=O)c2-c2nn[nH]n2)c1NCCN [Example 341]
Ans. 7.79

Qu. Answer with the recorded pIC50 for the compound listed here: NC(=O)N1CC(S(=O)(=O)c2ccc(-c3ccc(NS(=O)(=O)C4CC4)cc3)c(-c3nn[nH]n3)c2S(N)(=O)=O)C1 [Example 246]
Ans. 9.99

Qu. Answer with the recorded pIC50 for the compound listed here: NCCS(=O)(=O)c1ccc(-c2cccc3sc(NC(N)=O)nc23)c(-c2nn[nH]n2)c1S(N)(=O)=O [Example 85]
Ans. 9.84

Qu. Answer with the recorded pIC50 for the compound listed here: NCCS(=O)(=O)c1ccc(-c2cccc3cn[nH]c23)c(-c2nnn[nH]2)c1S(N)(=O)=O [Example 298]
Ans. 9.52

Qu. Answer with the recorded pIC50 for the compound listed here: NCCS(=O)(=O)c1ccc(-c2ccc3[nH]c(N)nc3c2)c(-c2nn[nH]n2)c1S(N)(=O)=O [Example 69]
Ans. 8.56
